B1: FBXO34 (parent)
chain: ASSVESTLPVLEASSWKKQVSHDF

- Variants of: B1
- experimental_details: protein stability index of a GFP-peptide fusion (GPS, HEK-293T) (PSI 1-6); higher = more stable;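 note: lentivirally expressed fusions sorted by FACS into six bins by GFP to DsRed ratio, PSI derived from sequencing read proportions per bin multiplied by bin number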
- experimental_parameters: c terminus: a fixed tail appended
value_type: protein stability index

{"variant_description": "L11I", "recorded_value": 2.91}
{"variant_description": "S3N", "recorded_value": 3.07}
{"variant_description": "D23G", "recorded_value": 3.06}
{"variant_description": "A13V", "recorded_value": 3}
{"variant_description": "L11V", "recorded_value": 3.03}
{"variant_description": "F24Y", "recorded_value": 3}
{"variant_description": "F24M", "recorded_value": 3}
{"variant_description": "S21M", "recorded_value": 3}
{"variant_description": "S15A", "recorded_value": 3.05}
{"variant_description": "S14N", "recorded_value": 3.02}
{"variant_description": "L11Q", "recorded_value": 2.96}
